Cited source for all entries: the supplement of paper PMC10567573

B1: PCMTD2 (parent)
chain: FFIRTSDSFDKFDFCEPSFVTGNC

- Variants of: B1
- Protocol Details: protein stability index of a GFP-peptide fusion (GPS, HEK-293T) (PSI 1-6); higher = more stable;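 further: lentivirally expressed fusions sorted by FACS into six bins by GFP to DsRed ratio, PSI derived from sequencing read proportions per bin multiplied by bin number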
- Conditions Used: c terminus: a fixed tail appended
Measured protein stability index values are reported for all entries that follow.
Property Label: protein stability index

* V20L | 3.22
* G22I | 2.8
* C15T | 2.3
* N23K | 1.75
* F9Q | 1.92
* S6M | 2.53
* S8Q | 3.03
* G22M | 3.08
* D13S | 2.57
* R4I | 1.55
* I3F | 2.17
